For each record, write down the corresponding pKd.
# SUBJECT OF TEST: T1, human IL-18BP (human, UniProt O95998 31-194)
# T1 construct: UniProt printed as 095998; also called hIL-18BP
# T1 sequence: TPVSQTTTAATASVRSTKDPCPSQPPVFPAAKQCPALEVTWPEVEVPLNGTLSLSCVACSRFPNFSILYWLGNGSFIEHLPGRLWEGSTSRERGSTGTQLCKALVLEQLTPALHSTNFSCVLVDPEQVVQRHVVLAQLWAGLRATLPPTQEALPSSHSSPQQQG
# METHOD DESCRIPTION: BLI, apparent KD
One number for each entry, as −log10 of the molar value.

Take a look at these entries with their results.
Entry SA301a HC-N58K (antibody, name in Kabat numbering, V domains shown, IgG1 kappa) VH: QVQLQESGPGLVKPSQTLSLTCTVSGYSITSDYNSHWIRQPPGKGLEWIGYIHYSGSTKYNPSLKSRVTISRDTSKNQFSLKLSSVTAADTAVYYCARNYGSIYVNYFDYWGQGTLVTVSS VL: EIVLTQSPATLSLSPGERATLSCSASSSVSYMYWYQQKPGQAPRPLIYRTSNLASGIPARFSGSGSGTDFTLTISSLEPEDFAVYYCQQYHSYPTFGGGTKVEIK needs its pKd filled in; supply it.
9.47

Entry SA301a HC-G55S (antibody, name in Kabat numbering, V domains shown, IgG1 kappa) VH: QVQLQESGPGLVKPSQTLSLTCTVSGYSITSDYNSHWIRQPPGKGLEWIGYIHYSSSTNYNPSLKSRVTISRDTSKNQFSLKLSSVTAADTAVYYCARNYGSIYVNYFDYWGQGTLVTVSS VL: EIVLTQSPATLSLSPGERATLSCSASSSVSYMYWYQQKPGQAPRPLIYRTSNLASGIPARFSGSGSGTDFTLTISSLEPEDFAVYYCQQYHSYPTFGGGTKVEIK needs its pKd filled in; supply it.
9.29

Entry SA301a HC-T57A (antibody, name in Kabat numbering, V domains shown, IgG1 kappa) VH: QVQLQESGPGLVKPSQTLSLTCTVSGYSITSDYNSHWIRQPPGKGLEWIGYIHYSGSANYNPSLKSRVTISRDTSKNQFSLKLSSVTAADTAVYYCARNYGSIYVNYFDYWGQGTLVTVSS VL: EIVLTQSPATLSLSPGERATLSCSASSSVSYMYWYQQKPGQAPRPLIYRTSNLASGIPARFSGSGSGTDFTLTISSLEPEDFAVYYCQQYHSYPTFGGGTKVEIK needs its pKd filled in; supply it.
9.05

Entry SA301a HC-N58Y (antibody, name in Kabat numbering, V domains shown, IgG1 kappa) VH: QVQLQESGPGLVKPSQTLSLTCTVSGYSITSDYNSHWIRQPPGKGLEWIGYIHYSGSTYYNPSLKSRVTISRDTSKNQFSLKLSSVTAADTAVYYCARNYGSIYVNYFDYWGQGTLVTVSS VL: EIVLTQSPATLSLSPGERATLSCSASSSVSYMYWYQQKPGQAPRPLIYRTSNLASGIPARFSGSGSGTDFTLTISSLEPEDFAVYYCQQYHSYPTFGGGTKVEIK needs its pKd filled in; supply it.
9.39

Entry SA301a HC-N58E (antibody, name in Kabat numbering, V domains shown, IgG1 kappa) VH: QVQLQESGPGLVKPSQTLSLTCTVSGYSITSDYNSHWIRQPPGKGLEWIGYIHYSGSTEYNPSLKSRVTISRDTSKNQFSLKLSSVTAADTAVYYCARNYGSIYVNYFDYWGQGTLVTVSS VL: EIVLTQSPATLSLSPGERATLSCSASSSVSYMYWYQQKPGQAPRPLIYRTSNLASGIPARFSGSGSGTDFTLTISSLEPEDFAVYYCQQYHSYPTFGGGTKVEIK needs its pKd filled in; supply it.
8.60

Entry SA301a HC-S56T (antibody, name in Kabat numbering, V domains shown, IgG1 kappa) VH: QVQLQESGPGLVKPSQTLSLTCTVSGYSITSDYNSHWIRQPPGKGLEWIGYIHYSGTTNYNPSLKSRVTISRDTSKNQFSLKLSSVTAADTAVYYCARNYGSIYVNYFDYWGQGTLVTVSS VL: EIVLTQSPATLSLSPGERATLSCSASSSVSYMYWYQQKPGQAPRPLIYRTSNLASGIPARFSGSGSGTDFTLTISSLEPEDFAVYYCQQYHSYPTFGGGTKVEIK needs its pKd filled in; supply it.
9.35

I'm hoping you can list pKd for every binder here, please.
1. SA301a HC-T57I (antibody, name in Kabat numbering, V domains shown, IgG1 kappa) VH: QVQLQESGPGLVKPSQTLSLTCTVSGYSITSDYNSHWIRQPPGKGLEWIGYIHYSGSINYNPSLKSRVTISRDTSKNQFSLKLSSVTAADTAVYYCARNYGSIYVNYFDYWGQGTLVTVSS VL: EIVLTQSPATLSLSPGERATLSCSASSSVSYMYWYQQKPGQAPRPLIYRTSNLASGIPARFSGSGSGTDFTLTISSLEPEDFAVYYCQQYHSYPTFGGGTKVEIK
2. SA301a HC-G55L (antibody, name in Kabat numbering, V domains shown, IgG1 kappa) VH: QVQLQESGPGLVKPSQTLSLTCTVSGYSITSDYNSHWIRQPPGKGLEWIGYIHYSLSTNYNPSLKSRVTISRDTSKNQFSLKLSSVTAADTAVYYCARNYGSIYVNYFDYWGQGTLVTVSS VL: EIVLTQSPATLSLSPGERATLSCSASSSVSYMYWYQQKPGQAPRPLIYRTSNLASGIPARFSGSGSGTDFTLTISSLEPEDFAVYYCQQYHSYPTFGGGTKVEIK
3. SA301a HC-S56M (antibody, name in Kabat numbering, V domains shown, IgG1 kappa) VH: QVQLQESGPGLVKPSQTLSLTCTVSGYSITSDYNSHWIRQPPGKGLEWIGYIHYSGMTNYNPSLKSRVTISRDTSKNQFSLKLSSVTAADTAVYYCARNYGSIYVNYFDYWGQGTLVTVSS VL: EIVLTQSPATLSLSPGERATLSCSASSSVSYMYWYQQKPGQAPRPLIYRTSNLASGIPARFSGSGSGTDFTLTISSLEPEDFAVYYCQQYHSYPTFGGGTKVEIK
4. SA301a HC-S56D (antibody, name in Kabat numbering, V domains shown, IgG1 kappa) VH: QVQLQESGPGLVKPSQTLSLTCTVSGYSITSDYNSHWIRQPPGKGLEWIGYIHYSGDTNYNPSLKSRVTISRDTSKNQFSLKLSSVTAADTAVYYCARNYGSIYVNYFDYWGQGTLVTVSS VL: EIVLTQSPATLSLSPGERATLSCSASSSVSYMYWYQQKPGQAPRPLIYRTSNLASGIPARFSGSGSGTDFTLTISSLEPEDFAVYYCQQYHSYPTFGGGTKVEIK

[9.55, 8.76, 9.34, 9.21]
